# Test system: MS2 coat protein
# assayName: apparent Kd, MS2 coat protein; higher = weaker binding; RNA-MaP array; FMN 200 µM where present
# runParameters: designed as: OFF switch for flavin mononucleotide; no ligand
apparent Kd values for the sequences below.
metricName: apparent Kd

1) GUUGUUACUGAGGAUAUUAUUUUAUUCGACUGAUAAGAAGGCAGUACAUGAGGAUCACCCAUGUGGGUAGCCAG : 27.9 nM
2) AUUUCGUCAGGAUAUCCUAGUAAUUGUUUCAUAUUUACGAUGGAGAAGGGACAUGAGGAUCACCCAUGUUGGUC : 55.8 nM
3) GUAGCUGCAGGAUAUCUAUCUUCUGACAUGAGGAUCACCCAUGUACUUACUUGGCUCAGUGGAGAAGGGCAGCGUU : 124 nM
4) CUGGUGUUAGGAUAUUCGAGGCUGCCUCGGAGACGAGGGUAGGAGAAGGGACAUGAGGAUCACCCAUGUGCUCC : 34.4 nM
5) GGGUGCUCACCGCCUUAACAUGAGGAUCACCCAUGUGGAGUGCAGGAUAUACGUUUCUAUCAUACGUAGAAGGGCACCGCGCAG : 5.59 nM
6) GCGUACAUAUCAGGAUAUCAUUGAAUGGAUUAACACAGUGAAUACAUGAGGAUCACCCAUGUGCUUGAGAAGGGAUUACAACGC : 10.9 nM
7) AAAAAACAUGAGGAUCACCCAUGUCAGGAUAUCGUAAAAAAAAAAAAAAAAAAAAAUGCGAGAAGGGACUGGAA : 87.4 nM
